# Assay summary: Stability of the compound in 25% fetal calf serum assessed as residual parent compound level at 80 uM measured after 42 hrs by RP-HPLC analysis
# Assay type: ADME, cell-free, Bos taurus
# Cond: cattle, read-out: Stabilty
Reported metric: remaining at 42 h, 80 µM (%)
Numbers only, in %.

Prompt: remaining at 42 h, 80 µM lookup needed for `CC(=O)NCSC[C@@H]1NC(=O)[C@H]([C@@H](C)O)NC(=O)[C@@H](NC(C)=O)CC(=O)NCCCC[C@@H](C(=O)N[C@@H](Cc2cnc[nH]2)C(N)=O)NC(=O)[C@H](CCCNC(=N)N)NC(=O)[C@H](Cc2cccc3ccccc23)NC(=O)[C@H]([C@@H](C)O)NC(=O)[C@H](CCC(N)=O)NC(=O)[C@H](CCCNC(=N)N)NC1=O` , thanks.
Completion: 40
